growth values, listed per item
# System: NCI-H522 lung
# assayMethodText: NCI-60 one-dose screen, 48 h (100 = growth as untreated, 0 = no growth, -100 = all killed)
# measurementContext: 100 µM
This is part of a sample that, as a whole, favours compounds with a hit. Of some 83,000 tested, about 20% had one in any assay.
Answer with a number only, understood to be in %.

Use these answered entries as a reference point.
CCc1ccccc1-n1c(N)c(C#N)c(-c2ccc(OC)c(OC)c2)c(C#N)c1=O
-8.58
Cc1[nH]c(-c2nc3ccccc3[nH]2)c(C)c1C(=O)NC(C)C1CCCCC1 (centres undefined)
-36.1
COc1ccc(Cl)cc1C(=O)NCCc1ccc(S(=O)(=O)NC(=O)NC2CCCCC2)cc1
54.1

Note: attention shifts to another entry.
Prompt: I am curious: what growth value has been reported for "CC#C[C@]1(O)CC[C@H]2[C@@H]3CCC4=CC(=O)CCC4=C3[C@@H](c3ccc4c(c3)OCO4)C[C@@]21C" ?
Response: -37.9
